Assay: AUC in Sprague-Dawley rat at 2 mg/kg, po by LC-MS/MS analysis
Format: ADME, organism-based, Plasma
Parameters: dose 2 mg/kg, route oral
Conditions: Sprague-Dawley, plasma
recorded.metric: AUC (µM·h)
Give just the number in µM·h; leave the unit off.

{"structure.smiles": "NC(=O)c1ccccc1Nc1nc(Nc2ccc(N3CCOCC3)cc2)ncc1Cl", "recorded.measurement": 0.1}

Turning now to a further molecule:
Prompt: What does the data say about its AUC? Entry: NC(=O)c1ccccc1Nc1nc(Nc2ccc(N3CCCC3=O)cc2)ncc1Cl
Response: 0.2

---

Biological target: Mitogen-activated protein kinase 9 (Homo sapiens)
Assay: Inhibition of JNK2 (unknown origin) using biotinylated ATF2 by HTRF method
recorded.metric: pIC50
For clarity, pIC50 is expressed as the negative log10 of concentration in mol/L.

Worked cases, answers included:
{"compound": "NC(=O)c1ccccc1Nc1nc(Nc2ccc(N3CCOCC3)c(F)c2)ncc1Cl", "recorded.measurement": 9.29}
{"compound": "NC(=O)c1ccccc1Nc1nc(Nc2ccc(Cl)cc2)ncc1Cl", "recorded.measurement": 7.47}

Prompt: What does the data say about its pIC50? Entry: CNC(=O)c1ccccc1Nc1cc(Nc2ccc(N3CCOCC3)cc2OC)ncc1C(F)(F)F [VS-4718]
Response: 6.92

---

Target: Mitogen-activated protein kinase 9 (Homo sapiens)
Assay: Inhibition of JNK2 (unknown origin) using biotinylated ATF2 by HTRF method
Below, each entry is listed with its recorded pIC50.
For clarity, pIC50 is expressed as the negative log10 of concentration in mol/L.

Worked cases, answers included:
{"structure.smiles": "N#Cc1ccc(Nc2ncc(Cl)c(Nc3ccccc3C(N)=O)n2)cc1", "recorded.measurement": 9.15}
{"structure.smiles": "COc1cc(Nc2ncc(Cl)c(Nc3ccccc3C(N)=O)n2)ccc1N1CCOCC1", "recorded.measurement": 9.17}
{"structure.smiles": "NC(=O)c1ccccc1Nc1nc(Nc2ccc(N3CCOCC3)cc2F)ncc1Cl", "recorded.measurement": 9.22}
{"structure.smiles": "CNC(=O)c1ccccc1Nc1cc(Nc2ccc(N3CCOCC3)cc2OC)ncc1F", "recorded.measurement": 6.23}

Turning now to a further molecule:
Prompt: What does the data say about its pIC50? Entry: CNC(=O)c1ccccc1Nc1cc(Nc2ccc(N3CCOCC3)cc2)ncc1C(F)(F)F
Response: 7.05

---

Below, each entry is listed with its recorded clearance.
Test: Clearance in Sprague-Dawley rat at 1 mg/kg, iv and 2 mg/kg, po by LC-MS/MS analysis
Format: ADME, organism-based
Conditions: in vivo
Give just the number in mL/min/kg; leave the unit off.

{"structure.smiles": "NC(=O)c1ccccc1Nc1nc(Nc2ccc(N3CCOCC3)cc2)ncc1Cl", "clearance (mL/min/kg)": 59}

Turning now to a further compound:
Prompt: What does the data say about its clearance? Entry: NC(=O)c1ccccc1Nc1nc(Nc2ccc(N3CCCC3=O)cc2)ncc1Cl
Response: 10

---

Tested on: Brain
Experiment: Drug penetration in C57Bl6 mouse brain at 10 mg/kg by LC-MS/MS analysis relative to control
Assay type: ADME, organism-based
Design: dose 10 mg/kg
Conditions: in vivo
Below, each entry is listed with its recorded Drug uptake.
Give just the number in %; leave the unit off.

Worked cases, answers included:
{"structure.smiles": "NC(=O)c1ccccc1Nc1nc(Nc2ccc(N3CCCC3=O)cc2)ncc1Cl", "assay.target": "Brain", "recorded.metric": "Drug uptake", "value.unit": "%", "recorded.measurement": 2}
{"structure.smiles": "COc1cc(N2CCOCC2)ccc1Nc1ncc(Cl)c(Nc2ccccc2C(N)=O)n1", "assay.target": "Brain", "recorded.metric": "Drug uptake", "value.unit": "%", "recorded.measurement": 17}
{"structure.smiles": "NC(=O)c1ccccc1Nc1nc(Nc2ccc(N3CCOCC3)cc2)ncc1Cl", "assay.target": "Brain", "recorded.metric": "Drug uptake", "value.unit": "%", "recorded.measurement": 100}

Turning now to a further compound:
Prompt: Please provide the recorded Drug uptake for COc1cc(Nc2ncc(Cl)c(Nc3ccccc3C(N)=O)n2)ccc1N1CCOCC1 , tested on Brain.
Response: 31

---

Assay: Half life in Sprague-Dawley rat at 1 mg/kg, iv and 2 mg/kg, po by LC-MS/MS analysis
Type: ADME, organism-based
Conditions: in vivo
Below, each entry is listed with its recorded half-life.
Give just the number in h; leave the unit off.

{"structure.smiles": "COc1cc(N2CCOCC2)ccc1Nc1ncc(Cl)c(Nc2ccccc2C(N)=O)n1", "half-life / h": 1}
{"structure.smiles": "NC(=O)c1ccccc1Nc1nc(Nc2ccc(N3CCOCC3)cc2)ncc1Cl", "half-life / h": 1}
{"structure.smiles": "COc1cc(Nc2ncc(Cl)c(Nc3ccccc3C(N)=O)n2)ccc1N1CCOCC1", "half-life / h": 1}

Prompt: What does the data say about its half-life? Entry: NC(=O)c1ccccc1Nc1nc(Nc2ccc(N3CCCC3=O)cc2)ncc1Cl
Response: 0.6

---

Below, each entry is listed with its recorded IC50.
Molecular target: Mitogen-activated protein kinase 9 (Homo sapiens, UniProt P45984)
Sequence (P45984 whole entry): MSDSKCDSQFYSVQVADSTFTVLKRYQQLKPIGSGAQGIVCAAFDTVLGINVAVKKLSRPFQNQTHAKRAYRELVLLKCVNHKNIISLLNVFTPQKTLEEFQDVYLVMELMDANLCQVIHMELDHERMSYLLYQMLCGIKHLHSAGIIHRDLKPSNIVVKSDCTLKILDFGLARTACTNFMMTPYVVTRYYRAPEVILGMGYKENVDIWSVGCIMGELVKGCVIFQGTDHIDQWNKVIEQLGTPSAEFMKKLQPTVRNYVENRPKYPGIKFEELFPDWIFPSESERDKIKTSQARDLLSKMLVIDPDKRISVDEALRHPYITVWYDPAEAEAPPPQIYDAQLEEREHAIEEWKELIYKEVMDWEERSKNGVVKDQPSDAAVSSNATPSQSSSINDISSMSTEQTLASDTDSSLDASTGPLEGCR
Assay: Inhibition of JNK2 (unknown origin) using biotinylated ATF2 by HTRF method
Give just the number in nM; leave the unit off.

{"structure.smiles": "NC(=O)c1ccccc1Nc1nc(Nc2ccc(N3CCOCC3)cc2)ncc1Cl", "recorded.metric": "IC50", "recorded.measurement": 1}
{"structure.smiles": "Cc1cc(Nc2ncc(Cl)c(Nc3ccccc3C(N)=O)n2)ccc1N1CCOCC1", "recorded.metric": "IC50", "recorded.measurement": 0.69}
{"structure.smiles": "CNC(=O)c1ccccc1Nc1cc(Nc2ccc(N3CCOCC3)cc2OC)ncc1Br", "recorded.metric": "IC50", "recorded.measurement": 82}

Prompt: What does the data say about its IC50? Entry: NC(=O)c1ccccc1Nc1nc(Nc2ccc(F)cc2)ncc1Cl
Response: 2.5

---

Assay: Plasma concentration in C57Bl6 mouse at 10 mg/kg after 2 hrs by LC-MS/MS analysis
Assay type: ADME, organism-based
Design: dose 10 mg/kg
recorded.metric: concentration at 2 h (nM)
Give just the number in nM; leave the unit off.

Prompt: What does the data say about its concentration at 2 h? Entry: NC(=O)c1ccccc1Nc1nc(Nc2ccc(N3CCCC3=O)cc2)ncc1Cl
Response: 680

Prompt: Similarly, COc1cc(N2CCOCC2)ccc1Nc1ncc(Cl)c(Nc2ccccc2C(N)=O)n1 ?
Response: 5500

Prompt: Similarly, COc1cc(Nc2ncc(Cl)c(Nc3ccccc3C(N)=O)n2)ccc1N1CCOCC1 ?
Response: 2600

Prompt: Similarly, NC(=O)c1ccccc1Nc1nc(Nc2ccc(N3CCOCC3)cc2)ncc1Cl ?
Response: 840

---

Target: Mitogen-activated protein kinase 10 (Homo sapiens, UniProt P53779)
Sequence (P53779 whole entry): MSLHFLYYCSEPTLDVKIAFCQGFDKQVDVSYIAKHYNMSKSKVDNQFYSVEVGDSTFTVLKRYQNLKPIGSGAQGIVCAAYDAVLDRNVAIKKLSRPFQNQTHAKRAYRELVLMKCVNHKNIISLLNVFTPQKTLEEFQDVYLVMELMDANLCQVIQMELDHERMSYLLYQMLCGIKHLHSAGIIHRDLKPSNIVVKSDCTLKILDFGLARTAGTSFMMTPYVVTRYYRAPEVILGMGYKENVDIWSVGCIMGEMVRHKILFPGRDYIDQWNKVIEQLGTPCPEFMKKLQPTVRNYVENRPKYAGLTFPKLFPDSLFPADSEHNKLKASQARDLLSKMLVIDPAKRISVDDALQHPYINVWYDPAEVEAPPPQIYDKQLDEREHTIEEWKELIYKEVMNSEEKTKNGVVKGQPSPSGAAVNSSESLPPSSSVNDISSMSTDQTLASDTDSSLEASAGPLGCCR
Assay: Inhibition of JNK3 (unknown origin) using biotinylated ATF2 by HTRF method
Threshold 0.8 nM: IC50 strictly smaller gives t, otherwise f.

Before answering, review these 5 worked examples.
{"molecule": "Cc1cc(Nc2ncc(Cl)c(Nc3ccccc3C(N)=O)n2)ccc1N1CCOCC1", "cat": "t"}
{"molecule": "CNC(=O)c1ccccc1Nc1cc(Nc2ccc(N3CCOCC3)cc2OC)ncc1C(F)(F)F [VS-4718]", "cat": "f"}
{"molecule": "CNC(=O)c1ccccc1Nc1cc(Nc2ccc(N3CCOCC3)cc2OC)ncc1Cl", "cat": "f"}
{"molecule": "CNC(=O)c1ccccc1Nc1cc(Nc2ccc(N3CCOCC3)cc2)ncc1C(F)(F)F", "cat": "f"}
{"molecule": "NC(=O)c1ccccc1Nc1nc(Nc2ccc(N3CCOCC3)cc2F)ncc1Cl", "cat": "t"}

Shifting focus to the molecule that follows.
Prompt: Determine if COc1cc(N2CCOCC2)ccc1Nc1cc(Nc2ccccc2C(N)=O)ccn1 shows IC50 strictly lower than 0.8 nM.
Response: f

---

Below, each entry is listed with its recorded bioavailability.
Assay: Oral bioavailability in Sprague-Dawley rat at 2 mg/kg by LC-MS/MS analysis
Assay type: ADME, organism-based
Conditions: Sprague-Dawley, in vivo
Give just the number in %; leave the unit off.

{"structure.smiles": "NC(=O)c1ccccc1Nc1nc(Nc2ccc(N3CCOCC3)cc2)ncc1Cl", "value.unit": "%", "bioavailability": 8}

Turning now to a further molecule:
Prompt: What does the data say about its bioavailability? Entry: NC(=O)c1ccccc1Nc1nc(Nc2ccc(N3CCCC3=O)cc2)ncc1Cl
Response: 3

---

Below, each entry is listed with its recorded concentration at 2 h.
Test: Drug uptake in C57Bl6 mouse brain at 10 mg/kg after 2 hrs by LC-MS/MS analysis
Assay type: ADME, organism-based
Parameters: dose 10 mg/kg
Conditions: read-out: Drug uptake
Give just the number in nM; leave the unit off.

Worked cases, answers included:
{"structure.smiles": "NC(=O)c1ccccc1Nc1nc(Nc2ccc(N3CCCC3=O)cc2)ncc1Cl", "value.unit": "nM", "recorded.measurement": 15}
{"structure.smiles": "COc1cc(N2CCOCC2)ccc1Nc1ncc(Cl)c(Nc2ccccc2C(N)=O)n1", "value.unit": "nM", "recorded.measurement": 930}

Prompt: What does the data say about its concentration at 2 h? Entry: NC(=O)c1ccccc1Nc1nc(Nc2ccc(N3CCOCC3)cc2)ncc1Cl
Response: 830

Prompt: Similarly, COc1cc(Nc2ncc(Cl)c(Nc3ccccc3C(N)=O)n2)ccc1N1CCOCC1 ?
Response: 800
